Tested target: Delta-type opioid receptor (Homo sapiens, UniProt P41143)
Sequence (P41143 whole entry): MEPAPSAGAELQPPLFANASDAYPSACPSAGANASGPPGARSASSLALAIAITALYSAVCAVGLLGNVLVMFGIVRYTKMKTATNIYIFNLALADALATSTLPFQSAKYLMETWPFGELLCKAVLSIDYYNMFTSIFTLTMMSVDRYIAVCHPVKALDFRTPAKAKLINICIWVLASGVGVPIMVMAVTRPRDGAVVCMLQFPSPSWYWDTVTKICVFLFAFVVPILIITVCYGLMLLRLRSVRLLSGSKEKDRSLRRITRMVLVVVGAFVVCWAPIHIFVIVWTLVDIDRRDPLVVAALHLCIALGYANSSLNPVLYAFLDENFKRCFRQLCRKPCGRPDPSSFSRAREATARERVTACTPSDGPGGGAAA
Assay comment: Agonist activity at delta opioid receptor expressed in CHO-hg cells by [35S]-GTPgammaS binding assay
Format: functional, cell-based
# if measured EC50 < 0.02 µM: 1  # else: -1

Would you please look over these solved cases?
| Compound | Group label |
| --- | --- |
| COc1ccc(CN(C(=O)[C@@H](N)Cc2c(C)cc(C(N)=O)cc2C)[C@@H](C)c2nc(-c3ccccc3)c[nH]2)cc1C(=O)O [ELUXADOLINE] | -1 |
| Cc1cc(O)cc(C)c1C[C@H](N)C(=O)N1Cc2ccccc2C[C@H]1c1nc(-c2ccccc2)c[nH]1 | 1 |
| Cc1cc(C(N)=O)cc(C)c1C[C@H](N)C(=O)N(Cc1cccc(C(=O)O)c1)[C@@H](C)c1nc(-c2ccccc2)c[nH]1 | -1 |
| Cc1cc(O)cc(C)c1C[C@H](N)C(=O)N(C(C)C)[C@@H](C)c1nc(-c2ccccc2)c[nH]1 | -1 |
| Cc1cc(C(N)=O)cc(C)c1C[C@H](N)C(=O)N1CCCC[C@H]1c1nc(-c2ccccc2)c[nH]1 | -1 |
| Cc1cc(O)cc(C)c1C[C@H](N)C(=O)N1CCCC[C@H]1c1nc(-c2ccccc2)c[nH]1 | -1 |

[ask] Given the entry Cc1cc(C(N)=O)cc(C)c1C[C@H](N)C(=O)N1Cc2ccccc2C[C@H]1c1nc(-c2ccccc2)c[nH]1 , would its reported EC50 be below 0.02 µM?
[reply] -1

[ask] Given the entry N[C@@H](Cc1ccc(O)cc1)C(=O)N1Cc2ccccc2C[C@H]1c1nc(-c2ccccc2)c[nH]1 , would its reported EC50 be below 0.02 µM?
[reply] 1

---

Assay comment: Solubility of the compound at pH 7.4
Format: physicochemical
Experimental setup: buffer
Measurement type: solubility

[ask] # solubility lookup, item COc1ccc(CN(C(=O)[C@@H](N)Cc2c(C)cc(C(N)=O)cc2C)C(C)c2nc(-c3ccccc3)c[nH]2)cc1C(=O)O.Cl.Cl (single isomer, unassigned)
[reply] > 1000 µg/mL

---

Tested target: Mu-type opioid receptor (Rattus norvegicus, UniProt P33535)
Sequence (P33535 whole entry): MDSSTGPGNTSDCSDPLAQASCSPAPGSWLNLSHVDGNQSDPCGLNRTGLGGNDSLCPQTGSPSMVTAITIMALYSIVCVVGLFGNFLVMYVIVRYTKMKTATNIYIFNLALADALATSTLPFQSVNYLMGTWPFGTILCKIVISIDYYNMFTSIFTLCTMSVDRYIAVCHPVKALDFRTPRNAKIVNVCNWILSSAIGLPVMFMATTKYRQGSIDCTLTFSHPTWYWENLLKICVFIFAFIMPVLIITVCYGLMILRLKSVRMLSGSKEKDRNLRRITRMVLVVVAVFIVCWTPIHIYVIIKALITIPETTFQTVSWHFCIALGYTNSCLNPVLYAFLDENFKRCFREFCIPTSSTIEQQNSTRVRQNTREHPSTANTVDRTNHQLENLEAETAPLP
pKi: −log10 of the molar value.
Binary call on pKi: true from 9 upward, false beneath that.

| Smiles string | Tested target | Group label |
| --- | --- | --- |
| Cc1cc(O)cc(C)c1C[C@H](N)C(=O)N(C(C)C)[C@@H](C)c1nc(-c2ccccc2)c[nH]1 | Mu-type opioid receptor (Rattus norvegicus, UniProt P33535) | true |
| Cc1cc(O)cc(C)c1C[C@H](N)C(=O)N(Cc1nc(-c2ccccc2)c[nH]1)C(C)C | Mu-type opioid receptor (Rattus norvegicus, UniProt P33535) | true |
| Cc1cc(O)cc(C)c1C[C@H](N)C(=O)N[C@@H](Cc1ccccc1)c1nc(-c2ccccc2)c[nH]1 | Mu-type opioid receptor (Rattus norvegicus, UniProt P33535) | false |

Consider now this further compound.
[ask] For this compound, is measured pKi 9 or higher? Cc1cc(C(N)=O)cc(C)c1C[C@H](N)C(=O)N(Cc1ccccc1)[C@@H](C)c1nc(-c2ccccc2)c[nH]1
[reply] true

---

Tested target: Delta-type opioid receptor (Rattus norvegicus)
Sequence (P33533 whole entry): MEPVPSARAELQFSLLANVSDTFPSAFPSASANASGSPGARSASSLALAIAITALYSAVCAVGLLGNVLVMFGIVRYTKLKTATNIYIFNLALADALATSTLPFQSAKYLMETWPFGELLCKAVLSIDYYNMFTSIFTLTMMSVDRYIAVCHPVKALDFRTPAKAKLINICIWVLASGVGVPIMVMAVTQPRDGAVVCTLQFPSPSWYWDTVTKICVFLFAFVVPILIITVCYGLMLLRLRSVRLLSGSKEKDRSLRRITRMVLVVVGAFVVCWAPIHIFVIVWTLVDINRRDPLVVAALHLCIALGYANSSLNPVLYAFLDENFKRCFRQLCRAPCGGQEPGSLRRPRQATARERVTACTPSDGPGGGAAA
Assay comment: Binding affinity to rat delta opioid receptor
In this section we review reported Ki values for a set of compounds.
State just the number; it will be interpreted in nM.

Study these solved cases before continuing.
| Compound | Ki / nM |
| --- | --- |
| Cc1cc(O)cc(C)c1C[C@H](N)C(=O)N(Cc1ccccc1)[C@@H](C)c1nc(-c2ccccc2)c[nH]1 | 1.5 |
| COc1ccc(CN(C(=O)[C@@H](N)Cc2c(C)cc(C(N)=O)cc2C)[C@@H](C)c2nc(-c3ccccc3)c[nH]2)cc1C(=O)O [ELUXADOLINE] | 1.3 |
| Cc1cc(O)cc(C)c1C[C@H](N)C(=O)N(C(C)C)[C@@H](C)c1nc(-c2ccccc2)c[nH]1 | 1.4 |
| Cc1cc(O)cc(C)c1C[C@H](N)C(=O)N(C)[C@@H](C)c1nc(-c2ccccc2)c[nH]1 | 15 |
| Cc1cc(C(N)=O)cc(C)c1C[C@H](N)C(=O)N(Cc1cccc(C(=O)O)c1)[C@@H](C)c1nc(-c2ccccc2)c[nH]1 | 0.5 |

[ask] # Ki lookup, item Cc1cc(O)cc(C)c1C[C@H](N)C(=O)N(Cc1nc(-c2ccccc2)c[nH]1)C(C)C
[reply] 15
